Value source: patent US20040018971A1

So I've got a bunch of binders here, and I need their IC50 values.
target of assay: HLA-B*0702 (human)
assay protocol: competition vs 125I-labeled standard peptide, purified HLA
One number for each entry, in nM.

Example entries and their recorded answers appear below.
FPNQAQMRIL (10-mer analog of the HER2/neu peptide starting at position 706; same label as the 9-mer in r49) [Her2/neu.706.F1, 10-mer] | 81
FPYVSRLLGI (10-mer analog of the HER2/neu peptide starting at position 779; same label as the 8-mer in r55) [Her2/neu.779.F1, 10-mer] | 112

Next, consider the following binder.
Exam item: IC50 lookup needed for FPNQAQMRI (9-mer analog of the HER2/neu peptide starting at position 706; same label as the 10-mer in r51) [Her2/neu.706.F1, 9-mer] , thanks.
Marked response: 68
